- protocol_notes: NCI Yeast Anticancer Drug Screen. Data for the mlh1 rad18 strain (AID 175)
- assay_context: S. cerevisiae mlh1 rad18 strain growth inhibition; at 50.0 µM; hits give high values
About 79,000 compounds went through this panel and 15% of them were active in at least one assay; those are over-represented in the sample as a whole.
Classification field: enter YES for growth inhibition values not below 20%, NO for values below it.

[
  {
    "compound": "Nc1ncnc(N)c1NC(=O)c1ccccc1",
    "label_value": "NO"
  },
  {
    "compound": "O=C1CC=NC(=S)N1",
    "label_value": "YES"
  },
  {
    "compound": "O=C1C(N=Nc2ccccc2)Sc2nc3ccccc3n21 (stereo not drawn)",
    "label_value": "NO"
  },
  {
    "compound": "CCN(CC)CCCNc1cc(OC)c(Cl)c2cccnc12",
    "label_value": "YES"
  },
  {
    "compound": "CC(c1ccccc1)C1OCCO1 (stereo not drawn)",
    "label_value": "YES"
  },
  {
    "compound": "CC1(C)C=C(C(=O)ON2C(=O)CCC2=O)C(C)(C)N1O",
    "label_value": "NO"
  },
  {
    "compound": "Nc1ccc2cc3ccccc3cc2c1",
    "label_value": "YES"
  },
  {
    "compound": "CCN(CC)Cc1cc(OC)c(OC)c(OC)c1",
    "label_value": "NO"
  }
]

----------
- protocol_notes: NCI Yeast Anticancer Drug Screen. Data for the rad50 strain (AID 155);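 note: 0% = growth of vehicle-only cultures of the same strain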
- assay_context: S. cerevisiae rad50 strain growth inhibition; at 50.0 µM
The panel holds about 79,000 compounds, 15% with a hit somewhere; the sample as a whole holds those more often. Active and inactive are the calls of the source. Rule as the data show it: active = growth inhibition above about 70%; inactive = the rest.
Outcome codes: active, inactive

[
  {
    "compound": "O=S(=O)(/C=C/c1ccc(Cl)cc1Cl)Cc1ccccc1CS(=O)(=O)/C=C/c1ccc(Cl)cc1Cl",
    "label_value": "inactive"
  },
  {
    "compound": "COC(=O)[C@H]1O[C@H]1c1cccc[n+]1[O-]",
    "label_value": "inactive"
  },
  {
    "compound": "CC(=O)Oc1ccc(C2CC(=O)N(CCN(C)C)C2=O)cc1 (stereo unspecified)",
    "label_value": "inactive"
  },
  {
    "compound": "CC(C)(C)OC(=O)CNC(=O)C(CSC(c1ccccc1)(c1ccccc1)c1ccccc1)N1C(=O)c2ccccc2C1=O (stereo unspecified)",
    "label_value": "inactive"
  },
  {
    "compound": "N#CC(C#N)=CNc1cccc(Cl)c1",
    "label_value": "inactive"
  },
  {
    "compound": "Cc1cc(C)c(CCl)c(C)c1CCl",
    "label_value": "inactive"
  },
  {
    "compound": "COC(=O)c1ccc(C)[nH]1",
    "label_value": "inactive"
  },
  {
    "compound": "CN1CCCCC1CCO (stereo unspecified)",
    "label_value": "inactive"
  },
  {
    "compound": "S=C(OCCCCCn1cnc2c(=S)nc[nH]c21)Oc1ccccc1",
    "label_value": "inactive"
  },
  {
    "compound": "CN1CCN(Cc2oc(CO)cc(=O)c2O)CC1",
    "label_value": "inactive"
  },
  {
    "compound": "c1ccc(CNCCNCc2ccccn2)nc1",
    "label_value": "inactive"
  },
  {
    "compound": "C=CCNC(=O)N(CCC)CCCCC(NC(C)=O)C(=O)NCc1ccccc1 (stereo unspecified)",
    "label_value": "inactive"
  },
  {
    "compound": "O=C(Cl)c1cc(-c2ccc(Cl)cc2)nc2c(-c3ccccc3)cccc12",
    "label_value": "inactive"
  },
  {
    "compound": "COc1ccccc1Nc1n[nH]c(=S)s1",
    "label_value": "inactive"
  },
  {
    "compound": "CCC1(C(=O)OC)CCC2C3CCC4CCCCC4(C)C3CCC21C (stereo unspecified)",
    "label_value": "inactive"
  },
  {
    "compound": "CCSC(=S)S(=O)(=O)c1ccc(C)cc1",
    "label_value": "active"
  },
  {
    "compound": "CN(Cc1cccc(Cl)c1)C(=O)Nc1ccccc1Cl",
    "label_value": "inactive"
  },
  {
    "compound": "Clc1ccc2cc(Cl)c3ccccc3c2c1",
    "label_value": "inactive"
  },
  {
    "compound": "NS(=O)(=O)c1cccc([N+](=O)[O-])c1",
    "label_value": "inactive"
  },
  {
    "compound": "Cc1ccc(S(=O)(=O)N2N=C(c3ccccc3)CC2c2ccccc2)cc1 (stereo unspecified)",
    "label_value": "active"
  },
  {
    "compound": "COc1ccc(-c2cc(C)n(C3OC(CO)C(O)C(O)C3O)c(=S)c2C#N)cc1 (stereo unspecified)",
    "label_value": "inactive"
  },
  {
    "compound": "Nc1ncncc1Oc1ccccc1",
    "label_value": "inactive"
  },
  {
    "compound": "CCOC(=O)C(NC(=O)OC(C)(C)C)C(=O)OCC",
    "label_value": "inactive"
  },
  {
    "compound": "O=C(Nc1ccccc1)N1CCC[C@@H]2CCCC[C@@H]21",
    "label_value": "inactive"
  },
  {
    "compound": "[O-][n+]1onc2c1/C(=N/O)CCC2",
    "label_value": "inactive"
  },
  {
    "compound": "Oc1ccc(Cl)cc1/C=N/NC(=S)Nc1cccc2cccnc12",
    "label_value": "inactive"
  },
  {
    "compound": "O=[N+]([O-])c1ccc(S(=O)(=O)Nc2ccccc2-c2ccccc2)cc1",
    "label_value": "active"
  },
  {
    "compound": "NC(Cc1cccc2ccccc12)C(=O)O (stereo unspecified)",
    "label_value": "inactive"
  },
  {
    "compound": "COc1ccc(NC(=O)/C(Cc2nc3ccccc3[nH]c2=O)=N\\O)c(OC)c1",
    "label_value": "inactive"
  },
  {
    "compound": "CC(C)OC(=O)Nc1ccc(F)c(F)c1",
    "label_value": "inactive"
  },
  {
    "compound": "CC(=O)CC1CCc2ccc3ccccc3c2C1c1cccc2ccccc12 (stereo unspecified)",
    "label_value": "inactive"
  },
  {
    "compound": "O=c1c2n[nH]nc2nc2n1CC(c1ccccc1)S2 (stereo unspecified)",
    "label_value": "inactive"
  },
  {
    "compound": "CC(=O)CC(C)(C)S(=O)(=O)c1ccc(C)cc1",
    "label_value": "inactive"
  },
  {
    "compound": "CC(=O)C(C(=O)NCc1ccccc1)C(c1ccc2c(c1)OCO2)C(C(C)=O)C(=O)NCc1ccccc1 (stereo unspecified)",
    "label_value": "inactive"
  },
  {
    "compound": "CN=CN(C)c1c2ccccc2nc2ccccc12",
    "label_value": "inactive"
  },
  {
    "compound": "N#Cc1ccc2c(c1)Sc1ccccc1N2",
    "label_value": "inactive"
  },
  {
    "compound": "O=C(O)CCc1ccc(-c2ccccc2)[nH]1",
    "label_value": "inactive"
  },
  {
    "compound": "C(=N\\OCc1ccccc1)/c1ncccc1C1OCCO1",
    "label_value": "inactive"
  },
  {
    "compound": "CC1(C)[C@@H]2CC[C@]1(C)[C@H](OC(=O)/C=C/c1ccccc1)C2",
    "label_value": "inactive"
  },
  {
    "compound": "CCOC(=O)NC(=S)Nc1ccn(C)c1",
    "label_value": "inactive"
  },
  {
    "compound": "CCC1(C)NN=C2C(=CC=C3NNC(C)(CC)N32)n2cccc21 (stereo unspecified)",
    "label_value": "inactive"
  }
]

----------
- protocol_notes: NCI Yeast Anticancer Drug Screen. Data for the bub3 strain (AID 167)
- assay_context: S. cerevisiae bub3 mutant strain, at 50.0 µM, hits give high values
Compounds without any hit were thinned out: in the full panel of roughly 79,000, 15% have a hit.
quantity_measured: growth inhibition (%)

[
  {
    "compound": "O=CNC(NC=O)NC=O",
    "quantitative_result": -4.3
  },
  {
    "compound": "Cc1ccc(C2OC(N)=C(O)C2=O)cc1 (centres undefined)",
    "quantitative_result": 1.85
  },
  {
    "compound": "C/C(=N\\NC(N)=O)C(C)(C)O",
    "quantitative_result": 11.5
  },
  {
    "compound": "CCCC(=O)Nc1ccc(OC)cc1",
    "quantitative_result": -1.85
  },
  {
    "compound": "CC(CO)CCNc1ncnc2c1ncn2CCC#N (centres undefined)",
    "quantitative_result": 6.95
  },
  {
    "compound": "N#C/C(=N/Nc1ccccc1)c1ccccc1",
    "quantitative_result": 1.85
  },
  {
    "compound": "Cc1nc2c(ncn2C2OC(CO)C(O)C2O)c(=O)[nH]1 (centres undefined)",
    "quantitative_result": 0.85
  },
  {
    "compound": "CNC(=O)c1ccccc1Cl",
    "quantitative_result": 3.9
  },
  {
    "compound": "N#CC(C#N)=C1C=CC=CC=C1",
    "quantitative_result": 8.75
  },
  {
    "compound": "COC1(OC)C2(Cl)C(Cl)=C(Cl)C1(Cl)C1CCCCC12 (centres undefined)",
    "quantitative_result": -5.15
  },
  {
    "compound": "C/C(O)=C(\\C=N\\C(=S)N=Nc1c(O)[nH]c2ccccc12)C(=O)Nc1ccccc1C",
    "quantitative_result": 62
  },
  {
    "compound": "O=C(O)Cc1cc(I)c(Oc2ccc(O)cc2)c(I)c1",
    "quantitative_result": -9.5
  },
  {
    "compound": "CCOCC(=O)N[C@H]1CCc2cc(OC)c(OC)c(OC)c2-c2ccc(OC)c(=O)cc21",
    "quantitative_result": 9.35
  },
  {
    "compound": "COc1ccc2c(c1OC)CN1CCc3cc4c(cc3C1=C2)OCO4",
    "quantitative_result": 8.15
  },
  {
    "compound": "CC(=O)Oc1nnc(-c2ccccc2)c(-c2ccccc2)n1",
    "quantitative_result": 7.4
  },
  {
    "compound": "CCOc1ccc(N2CCN(C(=O)Nc3ccccc3OC)CC2)cc1",
    "quantitative_result": 21.1
  },
  {
    "compound": "Cc1cccc2c(N=[N+]=[N-])cc(C(F)(F)F)nc12",
    "quantitative_result": 12.7
  },
  {
    "compound": "CCCc1c(Cl)nc(Cl)nc1Cl",
    "quantitative_result": 5.2
  },
  {
    "compound": "CCOC1C(Br)Cn2c(=O)c3cc4ccccc4cc3c(=O)n2C1C (centres undefined)",
    "quantitative_result": 33.6
  },
  {
    "compound": "COC(=O)Nc1nc2ccccc2n1-c1ccccc1",
    "quantitative_result": 16.4
  },
  {
    "compound": "O=C(OC(=O)c1cccnc1)c1cccnc1",
    "quantitative_result": -2.85
  },
  {
    "compound": "C=C1C(=O)OC2C1C(OC(=O)/C(=C/C)COC(C)=O)CC1(CO1)C1C(OC(=O)/C(=C/C)CO)C=C(C)C21 (centres undefined)",
    "quantitative_result": -41.1
  },
  {
    "compound": "Cc1ccc(S(=O)(=O)CNC(=O)C(O)(O)C(F)(F)F)cc1",
    "quantitative_result": -1.9
  },
  {
    "compound": "CC(O)C(C)(C)O (centres undefined)",
    "quantitative_result": 16.1
  },
  {
    "compound": "OCCN1OCCCC1c1ccccc1 (centres undefined)",
    "quantitative_result": -31.2
  },
  {
    "compound": "CCCCCC(=O)C(C)C1(C(=O)OC)NC(=S)NC(=O)C1C#N (centres undefined)",
    "quantitative_result": -1.9
  },
  {
    "compound": "c1cn2cnnc2n2cnnc12",
    "quantitative_result": -0.8
  },
  {
    "compound": "CC(=O)O[C@H]1CCN2C(=O)C=CC(OCc3ccccc3)C12 (some centres undefined)",
    "quantitative_result": -5.95
  },
  {
    "compound": "O=C(CN1CCCc2ccccc21)c1ccccc1",
    "quantitative_result": 19
  },
  {
    "compound": "CC(=O)OC1C[C@@](C)(O)[C@@]23O[C@@H]2[C@@H]2O[C@]2(C)C3C2OC(=O)C(C)[C@H]12 (some centres undefined)",
    "quantitative_result": -6.3
  },
  {
    "compound": "CC1=CC(C)=C(C#N)C2=S=C(c3ccccc3)C(=O)N12",
    "quantitative_result": 19.9
  },
  {
    "compound": "O=C(OC(=O)c1cccc2ccccc12)c1cccc2ccccc12",
    "quantitative_result": 12
  },
  {
    "compound": "Cc1cc2ccccc2c[n+]1CC(=O)CC([O-])(C(F)(F)F)C(F)(F)F",
    "quantitative_result": 16.4
  },
  {
    "compound": "O=C1CCCC/C1=C/c1ccccc1",
    "quantitative_result": -11.9
  }
]

Reference for the values: PubChem BioAssay (NCI)
